Origin of measurements: patent US8563714B2

# target-under-test: UniProtKB P25090
# Sequence (P25090 whole entry): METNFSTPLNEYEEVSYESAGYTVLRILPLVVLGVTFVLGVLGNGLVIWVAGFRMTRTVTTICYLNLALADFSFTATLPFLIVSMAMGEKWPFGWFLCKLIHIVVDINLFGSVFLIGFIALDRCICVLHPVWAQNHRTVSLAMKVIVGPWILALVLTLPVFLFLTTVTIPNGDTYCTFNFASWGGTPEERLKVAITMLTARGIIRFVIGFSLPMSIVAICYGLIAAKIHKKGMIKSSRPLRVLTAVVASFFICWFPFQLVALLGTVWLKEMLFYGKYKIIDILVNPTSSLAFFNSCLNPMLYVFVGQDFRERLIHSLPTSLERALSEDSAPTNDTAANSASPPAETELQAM
# method: Intracellular calcium measurements (FLIPR), agonistic activity in HEK293-hALXR-Gα16 cells
# reported-conditions: Fluo-4 calcium FLIPR, normalized to WKYMVm 10 nM
value-type: pEC50
In plain terms, pEC50 is the concentration in mol/L turned into minus its base-10 logarithm.

Solved cases (4 shown):
[
  {
    "molecule": "NCCCCCNC(=O)C1C(C(=O)Nc2ccc(Br)cc2)C2C=CC1C21CC1 (centres unmarked)",
    "target-under-test": "UniProtKB P25090",
    "pEC50": 9.80
  },
  {
    "molecule": "O=C(NCCCn1ccnc1)[C@H]1[C@H](C(=O)Nc2ccc(Br)cc2)[C@@H]2C=C[C@H]1C21CC1 (racemic)",
    "target-under-test": "UniProtKB P25090",
    "pEC50": 8.05
  },
  {
    "molecule": "CN1CCN(CCCNC(=O)[C@H]2[C@H](C(=O)NCc3ccc(Br)cc3)[C@@H]3C=C[C@H]2C32CC2)CC1 (racemic)",
    "target-under-test": "UniProtKB P25090",
    "pEC50": 6.67
  },
  {
    "molecule": "O=C(CCCN1CCCC1)NC[C@H]1[C@H](C(=O)Nc2ccc(Br)cc2)[C@@H]2C=C[C@H]1C21CC1 (racemic)",
    "target-under-test": "UniProtKB P25090",
    "pEC50": 6.80
  }
]

Q: Bench note: what pEC50 did O=C(CC1CC1)NC[C@H]1[C@H](C(=O)Nc2ccc(Br)cc2)[C@@H]2C=C[C@H]1C21CC1 (racemic) show?
Result: 6.50

Q: Bench note: what pEC50 did `O=C(NCCCCN1CCCC1)[C@H]1[C@H](C(=O)NCCc2ccc(Cl)cc2Cl)[C@@H]2C=C[C@H]1C21CC1` show?
Result: 5.01

Q: Bench note: what pEC50 did CC(C)(C)OC(=O)N1CCCC(NC(=O)C2C(C(=O)Nc3ccc(Br)cc3)C3C=CC2C32CC2)C1 (mixture of isomers) show?
Result: 7.74

Q: Bench note: what pEC50 did `NCCCCCNC(=O)[C@H]1[C@H](C(=O)NCc2ccc(Br)cc2F)[C@@H]2C=C[C@H]1C21CC1` show?
Result: 7.26

Q: Bench note: what pEC50 did `COCCNC(=O)[C@H]1[C@H](C(=O)Nc2ccc(Br)cc2)[C@@H]2C=C[C@H]1C21CC1` show?
Result: 8.30

Q: Bench note: what pEC50 did NCCCCNC(=O)[C@H]1[C@H](C(=O)Nc2ccc(Br)cc2)[C@H]2C=C[C@@H]1C21CC1 (relative stereo) show?
Result: 7.72

Q: Bench note: what pEC50 did CCCCCNC(=O)[C@H]1[C@H](C(=O)NCCCCN2CCCC2)[C@H]2C=C[C@@H]1C21CC1 (racemic) show?
Result: 7.10

Q: Bench note: what pEC50 did CC(=O)c1ncc(CNC(=O)[C@H]2[C@H](C(=O)NCCCCN3CCCC3)[C@H]3C=C[C@@H]2C32CC2)o1 (racemic) show?
Result: 7.04

Q: Bench note: what pEC50 did CCN1CCCC1CNC(=O)C1C(C(=O)Nc2ccc(Br)cc2)C2C=CC1C21CC1 (mixture of isomers) show?
Result: 7.80

Q: Bench note: what pEC50 did `CC(C)(C)OC(=O)NCCCCNC(=O)[C@H]1[C@H](C(=O)Nc2ncc(Br)s2)[C@@H]2CC[C@H]1C21CC1` show?
Result: 6.33

Q: Bench note: what pEC50 did `CN(C)CCNC(=O)[C@H]1[C@H](C(=O)Nc2ccc(Br)cc2)[C@@H]2C=C[C@H]1C21CC1` show?
Result: 9.39

Q: Bench note: what pEC50 did `O=C(NCCCCN1CCCC1)[C@H]1[C@H](C(=O)Nc2ccc(Cl)nc2)[C@@H]2C=C[C@H]1C21CC1` show?
Result: 8.80

Q: Bench note: what pEC50 did O=C(NCC(F)(F)F)[C@H]1[C@H](C(=O)Nc2ccc(Br)cc2)[C@@H]2C=C[C@H]1C21CC1 (racemic) show?
Result: 8.62
